We begin with a simple list: items and their reported Coupled exchange IC50 (5 min).
- Test target: GDP-bound KRAS protein (aa 1-169), containing both G12C and C118A amino acid substitutions (Homo sapiens, UniProt P01116, C118A/G12C)
- Sequence (P01116 1-169 isoform P01116-2 G12C/C118A): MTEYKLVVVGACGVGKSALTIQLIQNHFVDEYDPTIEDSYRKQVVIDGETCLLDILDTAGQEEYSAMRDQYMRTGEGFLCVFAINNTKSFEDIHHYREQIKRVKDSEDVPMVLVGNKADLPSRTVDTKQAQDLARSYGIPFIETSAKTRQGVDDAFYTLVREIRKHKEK
- Test protocol: Coupled nucleotide exchange assay (SOS-mediated, AlphaScreen)
- Format: biochemical
- Conditions: 5 min compound pre-incubation

{"columns": ["Compound", "Coupled exchange IC50 (5 min)"],
 "data": [
  ["C=CC(=O)N1CCN(c2nc(=O)n(-c3nonc3C(C)C)c3nc(-c4c(O)cccc4F)c(Cl)cc23)[C@@H](C)C1", "0.445 | nda μM"]
]}

Q. Name the recorded Coupled exchange IC50 (5 min) of the compound listed here: C=CC(=O)N1CCN(c2nc(=O)n(-c3c(C(=O)O)cccc3C(C)C)c3nc(-c4ccccc4F)c(Cl)cc23)[C@@H](C)C1
A. 0.107 | nda μM

Q. Give reported Coupled exchange IC50 (5 min) value for C=CC(=O)N1CCN(c2nc(=O)n(-c3ccccc3C(C)C)c3nc(N(C)CCO)c(Cl)cc23)[C@@H](C)C1
A. 48.5 | nda μM

Q. Consider the compound C=CC(=O)N1CCN(c2nc(=O)n(-c3c(C)ccnc3C(C)C)c3nc(-c4cc(C(F)(F)F)ccc4F)c(Cl)cc23)[C@@H](C)C1 (atropisomer, axis not shown; (M)) . State its measured Coupled exchange IC50 (5 min).
A. 0.236 | nda μM

Q. Given C=CC(=O)N1CCN(c2cc(=O)n(CC(C)(C)C)c3nc(-c4ccccc4F)c(Cl)cc23)CC1 , respond with its Coupled exchange IC50 (5 min).
A. 5.29 | nda μM

Q. Using the record for C=CC(=O)N1CCN(c2nc(=O)n(-c3c(CC)cccc3CC)c3nc(-c4cccnc4)c(Cl)cc23)[C@@H](C)C1 , state its measured Coupled exchange IC50 (5 min).
A. 12.9 | nda μM

* * *

- Test target: GDP-bound KRAS protein (aa 1-169), containing both G12C and C118A amino acid substitutions (Homo sapiens, UniProt P01116, C118A/G12C)
- Test protocol: Coupled nucleotide exchange assay (SOS-mediated, AlphaScreen)
- Format: biochemical
- Conditions: 5 min compound pre-incubation
Reported property: Coupled exchange IC50 (5 min)

Q. # return recorded Coupled exchange IC50 (5 min) for entry C=CC(=O)N1CCN(c2cc(=O)n(-c3ccccc3C(C)C)c3nc(-c4ccccc4F)c(Cl)cc23)[C@@H](C)C1
A. 2.05 | nda μM

Q. Give the value of Coupled exchange IC50 (5 min) reported for the following: C=CC(=O)N1CCN(c2nc(=O)n(-c3c(C)ccnc3C(C)C)c3nc(-c4cc(Cl)ccc4F)c(Cl)cc23)[C@@H](C)C1 (atropisomer, axis not shown; (M))
A. 0.047 | nda μM

Q. For the compound C=CC(=O)N1CCN(c2nc(=O)n(-c3c(N)cccc3C(C)C)c3nc(-c4ccccc4F)c(Cl)cc23)[C@@H](C)C1 (single isomer, unassigned) [Example 155-2] , report Coupled exchange IC50 (5 min).
A. 13.5 | nda μM

Q. Report measured Coupled exchange IC50 (5 min); entry is C=CC(=O)N1CCN(c2nc(=O)n(-c3c(C)ccnc3CC)c3nc(-c4ccccc4F)c(F)cc23)[C@@H](C)C1 [Example 57-16]
A. 3.79 | nda μM

Q. Consider the compound C=CC(=O)N1CCN(c2nc(=O)n(CC3CCN(C(=O)OC(C)(C)C)CC3)c3nc(Cl)c(Cl)cc23)[C@@H](C)C1 . State its measured Coupled exchange IC50 (5 min).
A. 25.5 | nda μM

Q. Answer with reported Coupled exchange IC50 (5 min) of C=CC(=O)N1CCN(c2nc(=O)n(-c3c(C)ccnc3C(C)C)c3nc(-c4cc(N)ccc4F)c(F)cc23)[C@@H](C)C1 [Example 58-6]
A. 0.623 | nda μM

* * *

- Test target: GDP-bound KRAS protein (aa 1-169), containing both G12C and C118A amino acid substitutions (Homo sapiens, UniProt P01116, C118A/G12C)
- Test protocol: Coupled nucleotide exchange assay (SOS-mediated, AlphaScreen)
- Conditions: read-out: Coupled exchange IC50 (5 min); 5 min compound pre-incubation
Reported property: IC50 (µM)

{"columns": ["Compound", "Display unit", "IC50"],
 "data": [
  ["C=CC(=O)N1CC(Oc2nc(=O)n(-c3c(C)ccnc3C(C)C)c3nc(-c4ccccc4F)c(Cl)cc23)C1 (atropisomer, axis not shown; (M))", "µM", 3.29],
  ["C=CC(=O)N1CCN(c2nc(CO)c(-c3ccccc3C(C)C)c3nc(-c4ccccc4F)c(Cl)cc23)CC1", "µM", 6.34],
  ["C=CC(=O)N1CC(Nc2nc(=O)n(-c3c(C)ccnc3C(C)C)c3nc(-c4ccccc4F)c(Cl)cc23)C1 (atropisomer, axis not shown; (M))", "µM", 117],
  ["C=CC(=O)N1CCN(c2nc(=O)n(-c3c(C)cccc3C)c3nc(-c4c(O)cccc4F)c(Cl)cc23)[C@@H](C)C1", "µM", 0.306],
  ["C=CC(=O)N1CCN(c2nc(=O)n(-c3c(C)cccc3C(C)C)c3nc(-c4ccccc4F)c(Cl)cc23)[C@@H](C)C1 (atropisomer, axis not shown; (M))", "µM", 0.044]
]}

(1) C=CC(=O)N1C[C@@H](C)N(c2nc(=O)n(-c3c(C)ccnc3C(C)C)c3nc(-c4c(O)cccc4F)c(F)cc23)[C@@H](C)C1 (atropisomer, axis not shown; (M))
(2) C=CC(=O)N1CCN(c2nc(=O)n(-c3c(C)ccnc3C(C)C)c3nc(-c4c(C)ccc5[nH]ncc45)c(Cl)cc23)[C@@H](C)C1 (atropisomer, axis not shown; (M))
Q. # query: argmin of IC50 over 1 and 2 Provide the label of your selected option as the answer.
A. 1
(1: 0.048 µM, 2: 0.077 µM)

* * *

Form field: Coupled exchange IC50 (5 min) (one value per entry).
- Test target: GDP-bound KRAS protein (aa 1-169), containing both G12C and C118A amino acid substitutions (Homo sapiens, UniProt P01116, C118A/G12C)
- Test protocol: Coupled nucleotide exchange assay (SOS-mediated, AlphaScreen)
- Format: biochemical
- Conditions: 5 min compound pre-incubation

{"columns": ["Compound", "Coupled exchange IC50 (5 min)"],
 "data": [
  ["C=CC(=O)N1CCN(c2nc(=O)n(-c3c(C)ccnc3C(C)C)c3nc(Cl)c(Cl)cc23)[C@@H](C)C1 (atropisomer, axis not shown; (P)) [Example 61-2-1]", "8.24 | nda μM"],
  ["C=CC(=O)N1CCN(c2nc(=O)n(-c3c(C)ccnc3C(C)C)c3nc(-c4cc(F)ccc4F)c(Cl)cc23)[C@@H](C)C1 (atropisomer, axis not shown; (M))", "0.067 | nda μM"],
  ["C=CC(=O)N1CCN(c2nc(=O)n(-c3c(C)cccc3C(C)(C)C)c3nc(-c4c(O)cccc4F)c(F)cc23)[C@@H](C)C1 (single isomer, unassigned) [Example 57-17-2]", "3.9 | nda μM"],
  ["C=CC(=O)NCCNc1nc(=O)n(-c2c(C)ccnc2C(C)C)c2nc(-c3ccccc3F)c(Cl)cc12 (single isomer, unassigned)", "15.4 | nda μM"]
]}

Q. Please give the documented Coupled exchange IC50 (5 min) of C=CC(=O)N1CCN(c2nc(=O)n(-c3c(CC)cccc3CC)c3nc(-c4ccccc4F)c(Cl)cc23)[C@@H](C(=O)OC)C1
A. 1.95 | nda μM

* * *

- Test target: GDP-bound KRAS protein (aa 1-169), containing both G12C and C118A amino acid substitutions (Homo sapiens, UniProt P01116, C118A/G12C)
- Test protocol: Coupled nucleotide exchange assay (SOS-mediated, AlphaScreen)
- Type: biochemical
- Conditions: 5 min compound pre-incubation
Coupled exchange IC50 (5 min) values for the molecules below.

{"columns": ["Molecule", "Coupled exchange IC50 (5 min)"],
 "data": [
  ["C=CC(=O)N1CCN(c2nc(=O)n(-c3c(C)ccnc3C(C)C)c3nc(-c4nc(N)ccc4Cl)c(F)cc23)C(C)C1 (atropisomer, axis not shown; (M))", "0.606 | nda μM"],
  ["C=CC(=O)N1CCN(c2nc(=O)n(-c3c(C)ncnc3C(C)C)c3nc(-c4cc(C)ccc4F)c(Cl)cc23)[C@@H](C)C1 (single isomer, unassigned) [Example 55-40-1]", "1.02 | nda μM"],
  ["C=CC(=O)N1CCN(c2nc(=O)n(-c3c(C)cc(N(C)C)cc3C(C)C)c3nc(-c4ccccc4F)c(Cl)cc23)[C@@H](C)C1 (single isomer, unassigned) [Example 55-16-2]", "0.039 | nda μM"],
  ["C=CC(=O)N1CCN(c2nc(=O)n(-c3c(C)ncnc3C(C)C)c3nc(-c4cc(F)ccc4F)c(Cl)cc23)[C@@H](C)C1 (single isomer, unassigned) [Example 55-39-1]", "1.795 | nda μM"],
  ["C=CC(=O)N1CCN(c2nc(=O)n(-c3ncccc3C(C)C)c3nc(-c4ccccc4F)c(F)cc23)[C@@H](C)C1", "0.752 | nda μM"],
  ["C=CC(=O)N1CCN(c2nc(=O)n(-c3c(C(C)C)cccc3N(C)C)c3nc(-c4ccccc4F)c(Cl)cc23)[C@@H](C)C1 (single isomer, unassigned) [Example 54-104-1]", "0.743 | nda μM"],
  ["C=CC(=O)N1CCN(c2nc(=O)[nH]c3nc(-c4c(O)cccc4F)c(Cl)cc23)[C@@H](C)C1", "10.8 | nda μM"],
  ["C=CC(=O)N1CCN(c2nc(=O)n(-c3ccccc3C(C)C)c3nc(-c4nc(N)ccc4Cl)c(Cl)cc23)[C@@H](C)C1", "0.225 | nda μM"],
  ["C=CC(=O)N1CCN(c2nc(=O)n(-c3c(C)cnn3C(C)(C)C)c3nc(-c4ccccc4F)c(Cl)cc23)[C@@H](C)C1 (single isomer, unassigned) [Example 55-38-1]", "0.534 | nda μM"],
  ["C=CC(=O)N1CCN(c2nc(=O)n(-c3c(C)ccnc3CC)c3nc(-c4c(O)cccc4F)c(F)cc23)[C@@H](C)C1 (single isomer, unassigned) [Example 57-1-2]", "2.47 | nda μM"]
]}

Q. State its Coupled exchange IC50 (5 min) for this molecule: C=CC(=O)N1CCN(c2nc(=O)n(-c3cccnc3C(C)C)c3nc(-c4ccccc4F)c(Cl)cc23)[C@@H](C)C1 [Example 54-9]
A. 0.147 | nda μM

Provenance of the data: patent US11090304B2
